system-name: UniProtKB P45983
Sequence (P45983 whole entry, looked up): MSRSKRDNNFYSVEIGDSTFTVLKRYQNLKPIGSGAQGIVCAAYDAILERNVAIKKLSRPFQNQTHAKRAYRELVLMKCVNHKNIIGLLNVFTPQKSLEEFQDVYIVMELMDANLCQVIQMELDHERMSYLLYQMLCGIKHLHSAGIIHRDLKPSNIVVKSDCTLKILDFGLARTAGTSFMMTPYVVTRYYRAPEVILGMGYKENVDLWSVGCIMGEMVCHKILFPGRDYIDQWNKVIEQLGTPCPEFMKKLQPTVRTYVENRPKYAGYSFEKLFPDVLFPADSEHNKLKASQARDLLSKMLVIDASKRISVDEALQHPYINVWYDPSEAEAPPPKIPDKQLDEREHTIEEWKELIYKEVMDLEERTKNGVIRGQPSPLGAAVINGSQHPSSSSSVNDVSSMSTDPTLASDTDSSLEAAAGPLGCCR
method-summary: radiometric filter-binding kinase assay
applied-conditions: compound 10.0 µM
outcome-measure: residual activity (%)

# molecule, residual activity, %
measured = [
    ("NC(=O)Nc1ccc2c(c1)/C(=C/c1cc(-c3cccnc3)c[nH]1)C(=O)N2", 48),
]

A: O=C(NOCC(O)CO)c1ccc(F)c(F)c1Nc1ccc(I)cc1Cl (stereo not given)
B: CCNc1nc(Nc2cc(F)c(C(=O)N3CCOCC3)cc2OC)ncc1C(F)(F)F
IN: Given A and B , report the one with the higher recorded residual activity. // output: label of the selected item
OUT: A
(A: 93%, B: 50%)

---

system-name: CHEK1 (human)
method-summary: radiometric filter-binding kinase assay
applied-conditions: compound 10.0 µM
outcome-measure: residual activity (%)

# molecule-smiles, unit, assay-result
measured = [
    ("CN1C(=O)[C@@H](Cc2c[nH]c3ccccc23)NC1=S", "%", 103),
]

P: O=C(O)c1cc(N=Nc2ccc(S(=O)(=O)Nc3ccccn3)cc2)ccc1O
Q: COc1cc2ncn(-c3cc(OCc4ccccc4S(C)(=O)=O)c(C#N)s3)c2cc1OC
IN: Between P and Q , which one shows the smaller residual activity number? Choose, then provide that item's label.
OUT: Q
(Q: 64%, P: 109%)

---

System: ROCK2 (rat)
method-summary: radiometric filter-binding kinase assay
applied-conditions: compound 0.1 µM; accession and sequence are those of the human protein
outcome-measure: residual activity (%)

P: C=CC(=O)N1CCC[C@@H](n2nc(-c3ccc(Oc4ccccc4)cc3)c3c(N)ncnc32)C1
Q: COc1ccc(-n2ncc3cnc(Nc4cc(OC)c(OC)c(OCCCN5CCN(C)CC5)c4)nc32)cc1
IN: Compare P and Q by numeric residual activity and name the larger one. Answer by stating the label of the chosen item.
OUT: P

---

system-name: PRKCA (human)
method-summary: radiometric filter-binding kinase assay
applied-conditions: compound 0.1 µM
outcome-measure: residual activity (%)

Worked examples follow.
# molecule, system-name, unit, residual activity
records = [
    ("CC1=C(CO)C(=O)O[C@@H]([C@@H](C)[C@H]2CC[C@H]3[C@@H]4C[C@H]5O[C@]56[C@@H](O)C=CC(=O)[C@]6(C)C4CC[C@]23C)C1 (some centres undefined)", "PRKCA (human)", "%", 96),
    ("c1ccc2c(-c3cnn4cc(-c5ccc(N6CCNCC6)cc5)cnc34)ccnc2c1", "PRKCA (human)", "%", 92),
    ("CNc1nc(-c2ccc3c(N)n[nH]c3c2)cc(N2C[C@@H](C(=O)NC3CCCCC3)CC[C@H]2C)n1", "PRKCA (human)", "%", 105),
    ("C=CC(=O)N1CCC[C@@H](n2nc(-c3ccc(Oc4ccccc4)cc3)c3c(N)ncnc32)C1", "PRKCA (human)", "%", 99),
    ("CN1CCN(CCOc2cc(OC3CCOCC3)c3c(Nc4c(Cl)ccc5c4OCO5)ncnc3c2)CC1", "PRKCA (human)", "%", 100),
]

I: CNC(=O)C1[C@H]2O[C@@](C)([C@@H]1N)n1c3ccccc3c3c4c(c5c6ccccc6n2c5c31)C(=O)NC4 (some centres undefined)
II: Cc1ccc(-c2ccc3c(ccc4sc5c(c43)NC[C@@H](C)NC5=O)n2)cn1
III: COc1ccc2c(c1)c1c3c(c4c5ccccc5n(C)c4c1n2CC(O)CN(C)C)C(=O)NC3=O (centres undefined)
IN: Task for the reader: rank each entry by its residual activity, from the minimum upward. Would you mind listing the labels in the order requested?
OUT: III, I, II
(III: 5%, I: 44%, II: 101%)
